The values you see were collected from paper PMC6272576.

List of SI TC values.
Tested on: Trypanosoma cruzi strain Tulahuen C2C4 (intracellular amastigotes in L6 cells)
Assay: in vitro growth inhibition of T. cruzi
Type: cell-based
Settings: ratio of cytotoxic (L6) over antiparasitic IC50
reported metric: SI TC

[[record]]
compound = "CC(C)=CCC1=C(O)C(=O)c2ccccc2C1=O"
recorded_result = 1.5

[[record]]
compound = "O=C1C(O)=C(C2=C(O)C(=O)c3ccccc3C2=O)C(=O)c2ccccc21 [2,2′-bis-(3-Hydroxy-1,4-naphthoquinone)]"
recorded_result = 0.3

[[record]]
compound = "OC[C@H]1O[C@@H](Oc2ccc(O)c3cccc(O)c23)[C@H](O)[C@@H](O)[C@@H]1O"
recorded_result = 0.7

[[record]]
compound = "O=C1C=CC(=O)c2ccccc21"
recorded_result = 0.7

[[record]]
compound = "OC[C@H]1O[C@@H](Oc2ccc(O)cc2)[C@H](O)[C@@H](O)[C@@H]1O [Arbutin (1,4-benzoquinone glucoside), Arbutin]"
recorded_result = ">1.5"

[[record]]
compound = "O=C1C=C(O)C(=O)c2ccccc21"
recorded_result = 0.6

[[record]]
compound = "CC1=CC(=O)c2c(O)cccc2C1=O"
recorded_result = 0.8

[[record]]
compound = "CC(C)=CC[C@@H](O)C1=CC(=O)c2c(O)ccc(O)c2C1=O"
recorded_result = 0.2


###

Test system: Trypanosoma cruzi strain Tulahuen C2C4 (intracellular amastigotes in L6 cells)
Assay: in vitro growth inhibition of T. cruzi
Assay type: cell-based
Details: Trypanosoma cruzi, TULAHUEN, L6, read-out: IC50 TC
pIC50: −log10 of the molar value.
reported metric: pIC50

[[record]]
smiles_text = "CC(C)=CC[C@@H](O)C1=CC(=O)c2c(O)ccc(O)c2C1=O"
reported_metric = "pIC50"
recorded_result = 6.57

